- assay-system: human ERα (Homo sapiens)
- Construct: amino acids M250-V595 of human ERα; His (N)
- Sequence (P03372 250-595): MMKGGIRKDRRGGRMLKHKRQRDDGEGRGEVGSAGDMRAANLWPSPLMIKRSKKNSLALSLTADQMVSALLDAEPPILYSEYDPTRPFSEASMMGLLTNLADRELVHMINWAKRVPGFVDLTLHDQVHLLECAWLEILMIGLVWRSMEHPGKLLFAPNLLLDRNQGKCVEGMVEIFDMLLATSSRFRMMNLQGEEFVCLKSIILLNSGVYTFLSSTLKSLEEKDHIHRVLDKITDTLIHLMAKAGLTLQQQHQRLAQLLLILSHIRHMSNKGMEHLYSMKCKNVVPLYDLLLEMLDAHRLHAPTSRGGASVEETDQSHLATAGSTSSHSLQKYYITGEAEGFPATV
- protocol-notes: Radioligand binding competition with [3H]-17β-estradiol, ERα
- test-context: human ERα ligand binding domain, read-out: ER-α IC50
Mark True for IC50 under 0.09 µM, False if at or over.

[in] A record lists "Oc1ccc2c(c1)COc1c-2cc(Cl)c2c(O)cccc12" . Is its IC50 below 0.09 µM?
[out] True

[in] Input "Oc1ccc2c(c1)COc1c-2cc(Cl)c2cc(O)ccc12" ; condition: IC50 strictly below 0.09 µM. Does it hold?
[out] True

[in] Just wondering, is IC50 of "Oc1ccc2c3c(ccc2c1)-c1cc(F)c(O)cc1CO3" below 0.09 µM?
[out] True

[in] Please let me know if "C=Cc1cc2c(c3ccc(O)cc13)OCc1cc(O)ccc1-2" shows IC50 below 0.09 µM.
[out] True

[in] # check: IC50 < 0.09 µM for "Oc1ccc2c3c(cc(Cl)c2c1)-c1cc(F)c(O)cc1CO3"
[out] True

[in] # check: IC50 < 0.09 µM for "N#Cc1cc2c(c3cccc(O)c13)OCc1cc(O)ccc1-2"
[out] True

[in] Please state whether IC50 is below 0.09 µM for Oc1ccc2c(c1)COc1c-2ccc2cc(O)ccc12 [Example 1a, 6H-Dibenzo[c,h]chromene-2,8-diol]
[out] True

[in] Check if IC50 falls below 0.09 µM for "Oc1ccc2c(c1)COc1c-2cc(-c2ccsc2)c2cc(O)ccc12" .
[out] False

[in] I wonder whether Oc1ccc2c(c1)COc1c-2ccc2ccccc12 [Example 1c, 6H-Dibenzo[c,h]chromen-8-ol] has IC50 below 0.09 µM. Can you tell?
[out] False

[in] Hello, is IC50 of the following compound strictly smaller than 0.09 µM? Oc1ccc2c(c1)COc1c-2ccc2c(O)cccc12 [Example 1u, 6H-dibenzo[c,h]chromene-1,8-diol]
[out] True

[in] Consider the compound "Oc1ccc2c(c1)COc1c-2cc(Br)c2c(O)cccc12" . Is its IC50 strictly less than 0.09 µM?
[out] True

[in] Lab note: confirm whether the reported IC50 for this compound is below 0.09 µM, equality not counting. compound: "Oc1ccc2c(c1)COc1c-2ccc2c(Cl)c(O)ccc12"
[out] True

[in] hey, is IC50 for "Oc1ccc2c(c1)COc1c-2ccc2c(O)ccc(Cl)c12" lower than 0.09 µM or not?
[out] True

[in] Is IC50 of "Oc1ccc2c(c1)COc1c-2cc(Br)c2cc(O)ccc12" strictly below 0.09 µM?
[out] True

[in] Hello, I'm reviewing records and need to know if IC50 of "CCCCc1cc2c(c3ccc(O)cc13)OCc1cc(O)ccc1-2" is below 0.09 µM. Could you check?
[out] True

[in] Record "Cc1cc2c(c3ccc(O)cc13)OCc1cc(O)ccc1-2" : is its IC50 strictly below 0.09 µM?
[out] False

[in] Check if IC50 falls below 0.09 µM for "CCCc1cc2c(c3ccc(O)cc13)OCc1cc(O)ccc1-2" .
[out] False

[in] Lab log: compare recorded IC50 with 0.09 µM; is it strictly lower for "Oc1ccc2c(c1)COc1c-2ccc2c(O)c(Cl)ccc12" ?
[out] True

[in] Dear reviewer, please state whether "COc1c(Cl)c2c(c3ccc(O)cc13)OCc1cc(O)ccc1-2" has IC50 strictly beneath 0.09 µM.
[out] True

[in] Take the compound "N#Cc1cc2c(c3ccc(O)c(Cl)c13)OCc1cc(O)ccc1-2" and say whether its IC50 is less than 0.09 µM.
[out] False

[in] Input "N#Cc1cc2c(c3ccc(O)cc13)OCc1cc(O)ccc1-2" ; condition: IC50 strictly below 0.09 µM. Does it hold?
[out] False

[in] Is IC50 of "N#Cc1cc2c(c3ccc(O)cc13)OCc1cc(O)c(F)cc1-2" strictly below 0.09 µM?
[out] False

[in] Below 0.09 µM on IC50? Entry "COc1cc2c(c3ccc(O)cc13)OCc1cc(O)ccc1-2"
[out] False

[in] Here's an entry: "Oc1ccc2c(c1)COc1c-2cc(-c2cccs2)c2cc(O)ccc12" . Is its IC50 below 0.09 µM?
[out] False

[in] Field: below-cutoff. Rule: recorded IC50 strictly less than 0.09 µM. Subject: "CCc1cc2c(c3ccc(O)cc13)OCc1cc(O)ccc1-2"
[out] True

[in] API: query returns whether the compound falls strictly under 0.09 µM in IC50. Query: "Oc1ccc2c3c(cc(Br)c2c1)-c1cc(F)c(O)cc1CO3"
[out] True
